System: K562
Experiment: NCI tumour cell line growth inhibition, 48 h
Activity calls are given as the source filed them. No stated cut-off is given here; in the data, active = GI50 up to about 1.1 µM and inactive = higher.
Please reply with one of these outcomes: active, inactive

Solved entries (count: 5):
compound	assigned_class
Cc1cccc(C)c1NC(=O)C(=O)C(C(=O)c1ccccc1-c1ccccc1)C1OC(=O)c2ccccc21 (stereo unspecified)	inactive
COc1ccc(OC)c2c1ccc1c(C)c3ccccc3c(C)c12	inactive
CN(C)c1ccc(C(C#N)NNC(=O)Cc2ccccc2)cc1 (stereo unspecified)	inactive
Nc1ncn2c(n1)nc1ccccc12	inactive
CC(Oc1ccc(OCC2CCCCC2)cc1)C(=O)N(CCO)CCO (stereo unspecified)	inactive

Asked: Please state the recorded outcome for this compound: COc1cc(O)c2c(=O)c3cccc(C)c3[nH]c2c1
Given back: inactive

Asked: Please indicate how the test categorized Cn1c2ccccc2c(=NNc2ccc(S(N)(=O)=O)cc2)c2ccccc21 .
Given back: inactive

====

Test system: HOP-92
Assay: NCI tumour cell line growth inhibition, 48 h
Active and inactive are the calls of the source. Rule as the data show it: active = GI50 up to about 1.1 µM and inactive = higher.
Select the correct class. Options are class 1 for active, class 0 for inactive and nothing else.

Sample answers from the record:
compound	subject_of_test	assigned_class
CC1=C(c2cc(C(=O)Nc3ccc(Cl)cc3)nc(S)n2)Sc2ccccc2N1	HOP-92	class 0
Cc1cc(N(CCC#N)CCC#N)ccc1/C=C1/N=C(c2ccccc2)N(N)C1=O	HOP-92	class 0
O=C1C=C(C2=CC(=O)C(=O)c3ccccc32)c2ccccc2C1=O	HOP-92	class 0
CCOC(=O)C1CSCCSC1	HOP-92	class 0
COC1C(O)C(O[C@H]2CC[C@@]3(C)C(CC[C@@H]4[C@@H]3CC[C@]3(C)[C@@H](C(C)OC5OC(CO)C(O)C(O)C5O)CC[C@]43O)C2)OC(C)C1OC1OC(CO)C(O)C(O)C1O (stereo not given in full)	HOP-92	class 0
O=C(O)/C(Cl)=C(\Cl)C(=O)c1ccccc1	HOP-92	class 0

Asked: What is the recorded call for this compound in the test? CCCCCCCCCCCCCC/C(C(=O)OC)=C(/O)C(=O)OCC
Given back: class 0

Asked: For O=C(NC(=S)NC(=O)c1cc(O)c(O)c(O)c1)c1cc(O)c(O)c(O)c1 , what call appears in the results of this test?
Given back: class 0

====

Test system: EKVX
Assay: NCI tumour cell line growth inhibition, 48 h
Calls of active or inactive are those of the source. No stated cut-off is given here; in the data, active = GI50 up to about 1.1 µM and inactive = higher.
Field 'call' accepts active, inactive

Please review the entries below; each comes with its answer.
compound	assigned_class
N=C(N)N/N=C/c1nc2n(c1[N+](=O)[O-])CCS2	inactive
CCCCc1c2c(nc3c1CCCC3=O)C(=O)CCC2	inactive
FC(F)(F)C1(C(F)(F)F)OC(Cl)(Cl)C(Cl)(Cl)O1	inactive
N#CC(c1ccccc1)(c1ccccc1)[C@@H](c1ccccc1)[C@H](Cc1ccccc1)NS(=O)(=O)c1ccccc1	inactive
CC[C@]1(Cc2ccc(OC)c(OC)c2)C=[N+]([O-])O[C@H](OC2CCCC2(c2ccccc2)c2ccccc2)[C@@H]1OC(=O)c1ccccc1 (some centres not stated)	inactive
Nc1ncnc2c1ncn2C1OC(CO)C(O)C1N (configuration not stated)	inactive

Asked: How did this test come out for O=C(O)c1ccc2nc(-c3ccccn3)c(-c3ccccn3)nc2c1 ?
Given back: inactive

Asked: Which outcome did this test record for the compound NNC(=O)c1ccc(-n2nnc(C(=O)NN)c2C(=O)NN)cc1 ?
Given back: inactive

Asked: Recorded call for O=S1(=O)C(c2ccccc2)=C(O)c2ccccc21 ?
Given back: inactive

Asked: What did the test return for N#CC(/N=N/c1ccc(Cl)cc1)c1nc2ccccc2o1 (configuration not stated) ?
Given back: inactive

Asked: What call does the record list for CCOC(=O)Oc1c(OC)cc(C(=O)NC2CCc3cc(OC)c(OC)c(OC)c3-c3ccc(SC)c(=O)cc32)cc1OC (configuration not stated) ?
Given back: active

Asked: Per the records of this test, what outcome belongs to Cc1ccc(/C=C2\N=C(N3CCOCC3)NC2=O)cc1 ?
Given back: inactive

Asked: I'd appreciate the recorded outcome for COc1cc(OC)c(C/C=C/c2ccccc2)cc1O from this test.
Given back: inactive

Asked: Please indicate how the test categorized NCCCNCCSP(=O)(O)O .
Given back: inactive

Asked: So what was the verdict on Cc1ccsc1/C=N/Nc1cc(C)c2ccccc2n1 in this test?
Given back: inactive

Asked: Recorded call for Cc1cc(C)nc(SC(C)C(=O)N/N=C/c2ccc(OCc3ccccc3)cc2)n1 (configuration not stated) ?
Given back: inactive

Asked: Look up the recorded call for CCN(CC)CCCNC(=O)C1COc2cc(-c3cc(=O)c4ccccc4o3)ccc2O1 (configuration not stated) in this test.
Given back: inactive
